# Assay summary: NCI Yeast Anticancer Drug Screen. Data for the mlh1 rad18 strain (AID 175)
# Condition info: S. cerevisiae mlh1 rad18 strain growth inhibition; at 50.0 µM
# Method: Growth inhibition of yeast strains with defined genetic alterations is measured as a screen for potential anti-cancer activity. Selected strains with alterations in DNA damage repair or cell cycle control were exposed to compounds and growth inhibition was measured relative to vehicle treated controls. The strain used in this assay is mlh1 rad18
This is part of a sample that, as a whole, favours compounds with a hit. Of some 79,000 tested, about 15% had one in any assay. The source made the active and inactive calls. Cut-off read from the data, not from the text of the source: active = growth inhibition above about 70%; inactive = the rest.
Outcomes: y (active), n (inactive)

| Molecule | Assigned label |
| --- | --- |
| O=C1CC(=O)N(c2ccccc2)N1 | n |
| O=C(OCC(F)(F)C(F)(F)C(F)(F)C(F)(F)C(F)(F)C(F)F)OCC(F)(F)C(F)(F)C(F)(F)C(F)(F)C(F)(F)C(F)F | n |
| O=C(O)C(Nc1ccc(Cc2ccc(NC(C(=O)O)c3ccccc3)cc2)cc1)c1ccccc1 (stereo unspecified) | y |
| COc1ccc(C=Nc2c(O)ccc3ccccc23)cc1OC | n |
| Cc1c(C(=O)O)[nH]c(=O)[nH]c1=O | n |
| CCCC[P+](C)(CC[P+](C)(c1ccccc1)c1ccccc1)c1ccccc1 (stereo unspecified) | n |
| c1ccc(Sc2nc(Sc3ccccc3)nc(Sc3ccccc3)n2)cc1 | n |
| NC(=O)Nc1ccc(S(=O)(=O)c2ccc(N)cc2)cc1 | n |
| CCOC(=O)c1cnc2cc3c(cc2c1Nc1cccc(C)c1C)OCO3 | n |
| CC(=O)NC(CCCCN)C(=O)NCc1ccccc1 (stereo unspecified) | n |
| CC(=O)Nc1cc2c(cc1Br)-c1ccc(Br)cc1C2 | n |

---

# Assay summary: NCI Yeast Anticancer Drug Screen. Data for the cln2 rad14 strain (AID 165)
# Condition info: S. cerevisiae cln2 rad14 strain, at 50.0 µM
This is part of a sample that, as a whole, favours compounds with a hit. Of some 79,000 tested, about 15% had one in any assay. The source made the active and inactive calls. Rule as the data show it: active = growth inhibition above about 70%; inactive = the rest.
Outcomes: active, inactive

| Compound | Assigned label |
| --- | --- |
| Nc1ccc(N)c(N)c1 | inactive |
| Cc1nn(CCO)c2nc(N)nc(N)c12 | inactive |
| CC1C(c2ccccc2)OC(c2ccccc2)N1C (stereo unspecified) | inactive |
| O=C(CNC(=O)C(CO)NC(=O)OCc1ccccc1)OCc1ccccc1 (stereo unspecified) | inactive |
| CN1CCN(c2ccncc2S(=O)(=O)N2CCN(C)CC2)CC1 | inactive |
| Cc1ccc(S(=O)(=O)OCOS(=O)(=O)c2ccc(C)cc2)cc1 | inactive |
| CN(C)c1ccc(/C=C(\C#N)c2nc(-c3cc4ccccc4oc3=O)cs2)cc1 | inactive |
| O=C(O)c1ccc(C(=O)c2ccc(C(=O)c3ccc(C(=O)O)cc3)cc2)cc1 | inactive |
| Cc1ccc(C(=O)Cc2nc3c([nH]c2=O)c(C)nn3-c2ccccc2)c(C)c1 | inactive |
| COc1ccc(C)c(C2=CCCCC2)c1 | inactive |
| CC(=O)N(c1ccccc1)c1ccccc1 | inactive |
| CC1(C)CC(C)(Br)C(Br)C(=O)C1C(O)(C(F)(F)F)C(F)(F)F (stereo unspecified) | active |
| NCCCc1ccc2c(c1)OCO2 | inactive |
| CCOC(=O)C(CC[C@@H]1N[C@H](C(N)=O)Cc2c1[nH]c1ccccc21)C(=O)OCC | inactive |
| CC(C)C(CN)(C(C)C)C(C)C | inactive |
| O=c1[nH]c2cc(Cl)c(Cl)cc2c2ccc(Cl)cc12 | inactive |
| CSc1ccc(NC(=O)Nc2cccc(C)c2C)cc1 | inactive |
| C=CC12CCC(CC1)n1c(=O)n(C)c(=O)n12 | inactive |
| COC1=C(c2ccccc2)P(=O)(Cc2ccccc2)C(C)C1 (stereo unspecified) | inactive |
| CC1(C)S[C@@H]2[C@H](NC(=O)/C=C/c3ccccc3)C(=O)N2[C@H]1C(=O)O | inactive |
| COc1ccc2ccc3[nH]c4c(C)cnc(NCCCN(C)C)c4c3c2c1 | inactive |
| CCO/C(O)=c1/s/c(=C2/SC(=S)N(c3ccc(C)cc3)C2=O)n(-c2ccccc2)c1=N | inactive |
| Cc1ccc(NC(=O)c2ccccc2)cc1 | inactive |
| COc1cc(/C=C/c2ccc(/C=C/c3cc(OC)c(OC)c(OC)c3)cc2)cc(OC)c1OC | inactive |
| C=C(C(N)=O)c1ccc([N+](=O)[O-])o1 | inactive |
| CC(=O)Oc1ccc2c(OC(C)=O)c(C)cc(OC(C)=O)c2c1 | inactive |
| CN(c1ccccc1)c1nc(Cl)c(Cl)c(Cl)n1 | inactive |
| COC(=O)c1cc(C(=O)O)c(=O)n2ccccc12 | inactive |
| O=C(COc1ccc(Cl)c(Cl)c1)NCc1ccc(Cl)cc1 | inactive |
| CC(C)(C)S(=O)(=O)CCCCl | inactive |
| CSc1nc2c(c(=O)n1C)N=C(c1ccccc1)[C@H](C(CC(=O)c1ccccc1)c1ccccc1)C(c1ccccc1)N2 (stereo partly specified) | inactive |
| C[CH2][Sn]([CH2]C)([O]P(=O)(C[Si](C)(C)C)c1ccccc1)[O]P(=O)(C[Si](C)(C)C)c1ccccc1 (stereo unspecified) | inactive |
| CCc1nc2c([nH]1)c(=O)n(C)c(=O)n2C | inactive |
| Nc1cccc(C(CC(=O)O)CC(=O)O)c1 | inactive |
| C/C(=N/NC(=S)NNC(=S)N(C)c1ccccc1)c1nccc2ccccc12 | active |
| CCNC(=O)CCC(NS(=O)(=O)c1ccc(NC(=O)c2ccc(Cl)cc2)cc1)C(=O)O (stereo unspecified) | inactive |
| c1ccc(N=NC(N=Nc2ccccc2)=P(c2ccccc2)(c2ccccc2)c2ccccc2)cc1 | inactive |
| O=C(O)C(O)C(O)C(O)C(O)C(=O)O (stereo unspecified) | inactive |
| Cc1cc(C)nc(NS(=O)(=O)c2ccc(NC(=O)c3ccncc3)cc2)n1 | inactive |
| CCCc1c(O)cccc1O | inactive |
| c1ccc(-c2nc(-c3ccccc3SSc3ccccc3-c3nc(-c4ccccc4)nn3-c3ccccc3)n(-c3ccccc3)n2)cc1 | inactive |
| CCCCCN(CCCCC)C(=S)[S-].CCCCCN(CCCCC)C(=S)[S-].[Zn] | inactive |
| O=S(=O)(Cl)c1c(F)c(F)c(F)c(F)c1F | inactive |
| CC1(C)C(=O)N2c3ccccc3C3(CC(N4C(=O)c5ccccc5C4=O)C(=O)O3)C2N1C(=O)OCc1ccccc1 (stereo unspecified) | inactive |
| O=C1CSC(c2c(F)cccc2Cl)N1c1nncs1 (stereo unspecified) | inactive |
| CCc1cccc(CC)c1N=Cc1ccccc1O | inactive |

Ref: PubChem BioAssay (NCI)
